Data origin: paper PMC11207571

Target: cynomolgus monkey Mdr1 (Macaca fascicularis, UniProt Q8HZQ6)
Sequence (Q8HZQ6 1-1283): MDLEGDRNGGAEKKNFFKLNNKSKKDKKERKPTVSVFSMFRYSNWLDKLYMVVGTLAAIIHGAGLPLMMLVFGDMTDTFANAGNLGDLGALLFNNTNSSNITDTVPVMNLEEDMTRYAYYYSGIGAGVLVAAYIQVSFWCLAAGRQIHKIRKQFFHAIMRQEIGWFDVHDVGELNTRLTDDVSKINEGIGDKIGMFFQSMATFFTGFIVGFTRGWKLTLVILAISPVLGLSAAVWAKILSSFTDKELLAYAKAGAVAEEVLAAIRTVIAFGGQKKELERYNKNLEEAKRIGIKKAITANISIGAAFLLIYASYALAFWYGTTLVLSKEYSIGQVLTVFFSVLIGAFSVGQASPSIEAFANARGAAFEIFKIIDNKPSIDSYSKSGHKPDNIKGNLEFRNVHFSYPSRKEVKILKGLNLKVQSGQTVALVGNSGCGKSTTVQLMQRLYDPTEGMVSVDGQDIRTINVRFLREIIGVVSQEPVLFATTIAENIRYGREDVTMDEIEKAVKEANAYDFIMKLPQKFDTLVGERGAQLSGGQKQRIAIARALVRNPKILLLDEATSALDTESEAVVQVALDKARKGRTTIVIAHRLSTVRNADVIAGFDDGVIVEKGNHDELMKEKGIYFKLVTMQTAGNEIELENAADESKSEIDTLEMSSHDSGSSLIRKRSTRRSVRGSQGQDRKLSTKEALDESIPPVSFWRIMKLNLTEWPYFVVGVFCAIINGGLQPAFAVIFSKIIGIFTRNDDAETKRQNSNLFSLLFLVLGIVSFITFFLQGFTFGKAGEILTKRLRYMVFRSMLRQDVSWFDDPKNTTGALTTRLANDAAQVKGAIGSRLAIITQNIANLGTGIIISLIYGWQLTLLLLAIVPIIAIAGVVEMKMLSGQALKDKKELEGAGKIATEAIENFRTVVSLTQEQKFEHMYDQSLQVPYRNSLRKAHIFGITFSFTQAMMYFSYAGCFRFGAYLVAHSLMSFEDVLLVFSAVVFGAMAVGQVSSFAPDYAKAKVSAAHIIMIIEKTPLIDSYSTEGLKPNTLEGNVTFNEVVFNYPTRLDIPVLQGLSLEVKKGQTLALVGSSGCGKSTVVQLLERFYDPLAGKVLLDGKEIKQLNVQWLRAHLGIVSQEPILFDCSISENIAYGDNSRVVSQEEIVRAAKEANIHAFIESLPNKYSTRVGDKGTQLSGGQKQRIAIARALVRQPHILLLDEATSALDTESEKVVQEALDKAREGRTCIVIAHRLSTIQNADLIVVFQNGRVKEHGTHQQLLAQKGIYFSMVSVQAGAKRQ
Experiment: Bidirectional transport assay, efflux ratio in Abcb1KO-MDCKII cyMDR1 cells
Settings: cynomolgus monkey, pH 7.4

Molecule	efflux ratio at 120 min, 1 µM
Nc1c2c(nc3ccccc13)CCCC2	0.83
CNC(=C[N+](=O)[O-])NCCSCc1ccc(CN(C)C)o1	2.14
CC[C@]1(O)C[C@@H]2CN(CCc3c([nH]c4ccccc34)[C@@](C(=O)OC)(c3cc4c(cc3OC)N(C)[C@H]3[C@@](O)(C(=O)OC)[C@H](OC(C)=O)[C@]5(CC)C=CCN6CC[C@]43[C@@H]65)C2)C1	61.4
NC(=O)N1c2ccccc2C=Cc2ccccc21 [Carbamazepine]	0.75

====

Biological target: human MDR1 (Homo sapiens, UniProt P08183)
Sequence (P08183 whole entry): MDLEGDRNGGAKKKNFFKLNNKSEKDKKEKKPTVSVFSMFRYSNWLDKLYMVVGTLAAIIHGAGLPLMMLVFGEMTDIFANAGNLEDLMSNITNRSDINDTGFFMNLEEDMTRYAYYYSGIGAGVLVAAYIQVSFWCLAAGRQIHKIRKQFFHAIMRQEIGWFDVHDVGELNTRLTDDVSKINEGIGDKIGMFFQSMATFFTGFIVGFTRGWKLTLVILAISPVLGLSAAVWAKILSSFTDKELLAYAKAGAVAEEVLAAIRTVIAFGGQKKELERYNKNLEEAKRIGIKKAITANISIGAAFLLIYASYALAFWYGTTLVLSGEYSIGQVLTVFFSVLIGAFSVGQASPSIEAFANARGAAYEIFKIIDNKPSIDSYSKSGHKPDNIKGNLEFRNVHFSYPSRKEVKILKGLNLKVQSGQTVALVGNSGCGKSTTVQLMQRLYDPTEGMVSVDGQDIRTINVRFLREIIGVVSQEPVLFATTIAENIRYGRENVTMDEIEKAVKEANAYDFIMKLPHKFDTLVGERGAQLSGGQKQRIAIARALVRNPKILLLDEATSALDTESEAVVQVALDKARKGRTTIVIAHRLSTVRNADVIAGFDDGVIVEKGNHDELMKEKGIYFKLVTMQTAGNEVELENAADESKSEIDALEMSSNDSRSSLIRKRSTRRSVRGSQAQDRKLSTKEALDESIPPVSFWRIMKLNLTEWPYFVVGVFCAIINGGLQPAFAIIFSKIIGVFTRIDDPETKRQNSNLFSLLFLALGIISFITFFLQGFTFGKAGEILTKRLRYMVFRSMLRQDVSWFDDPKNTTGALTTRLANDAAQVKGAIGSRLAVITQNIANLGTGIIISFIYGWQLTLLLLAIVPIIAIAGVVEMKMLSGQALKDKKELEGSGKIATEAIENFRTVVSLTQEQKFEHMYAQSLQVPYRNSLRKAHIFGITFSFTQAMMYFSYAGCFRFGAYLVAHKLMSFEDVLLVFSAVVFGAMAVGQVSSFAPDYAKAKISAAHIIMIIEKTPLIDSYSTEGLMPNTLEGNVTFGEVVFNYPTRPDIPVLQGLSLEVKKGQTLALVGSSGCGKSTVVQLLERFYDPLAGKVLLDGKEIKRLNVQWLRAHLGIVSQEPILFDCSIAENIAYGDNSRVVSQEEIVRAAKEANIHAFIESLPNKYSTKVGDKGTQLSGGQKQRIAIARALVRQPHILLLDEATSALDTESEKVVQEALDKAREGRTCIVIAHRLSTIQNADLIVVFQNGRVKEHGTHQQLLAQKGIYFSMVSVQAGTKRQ
Test: in vitro
Conditions: human, MDCK-MDR1, pH 7.4
Listed molecules paired with reported efflux ratio at 120 min, 1 µM
Quantity Measured: efflux ratio at 120 min, 1 µM

Molecule	Measured Value
Nc1c2c(nc3ccccc13)CCCC2	0.93
CN(C)C(=O)C(CCN1CCC(O)(c2ccc(Cl)cc2)CC1)(c1ccccc1)c1ccccc1 [Loperamide]	48.7
Cc1ccc(NC(=O)c2ccc(CN3CCN(C)CC3)cc2)cc1Nc1nccc(-c2cccnc2)n1	60.2
CC[C@]1(O)C[C@@H]2CN(CCc3c([nH]c4ccccc34)[C@@](C(=O)OC)(c3cc4c(cc3OC)N(C)[C@H]3[C@@](O)(C(=O)OC)[C@H](OC(C)=O)[C@]5(CC)C=CCN6CC[C@]43[C@@H]65)C2)C1	51.6
CN(C)CCOC(C)(c1ccccc1)c1ccccn1 (centres unmarked)	1.68
CCN(CC)C(=O)/C(C#N)=C/c1cc(O)c(O)c([N+](=O)[O-])c1	0.28
CCNc1nc(Cl)nc(NC(C)C)n1	0.52
O=C(CCCN1CCC(O)(c2ccc(Cl)cc2)CC1)c1ccc(F)cc1	0.89
CNC(=C[N+](=O)[O-])NCCSCc1ccc(CN(C)C)o1	2.89
CC(C)C[C@H]1C(=O)N2CCC[C@H]2[C@]2(O)O[C@](NC(=O)[C@@H]3C=C4c5cccc6[nH]c(Br)c(c56)C[C@H]4N(C)C3)(C(C)C)C(=O)N12	4.85
CCN(CC)CCNC(=O)c1cc(Cl)c(N)cc1OC [Metoclopramide]	5.55
Cc1nc2n(c(=O)c1CCN1CCC(c3noc4cc(F)ccc34)CC1)CCCC2O (centres unmarked)	19.8
CC(=O)CC(c1ccccc1)c1c(O)c2ccccc2oc1=O (centres unmarked)	0.56
Cc1nccn1CC1CCc2c(c3ccccc3n2C)C1=O (centres unmarked)	5.24
COc1ccc2c(c1)[C@]13CCCC[C@@H]1[C@H](C2)N(C)CC3	1.03
CNS(=O)(=O)Cc1ccc2[nH]cc(CCN(C)C)c2c1	1.88
O=C1c2c(O)ccc(O)c2C(=O)c2c(NCCNCCO)ccc(NCCNCCO)c21	5.66

====

Molecular target: UniProt:Q8HZQ6
Experiment: Bidirectional transport assay, efflux ratio in Abcb1KO-MDCKII cyMDR1 cells
Details: cynomolgus monkey, pH 7.4
Protocol: Eluent A consisted of 0.1% formic acid in water, eluent B consisted of 0.1% formic acid in acetonitrile. Then, 10 µL samples were injected into the HPLC-MS/MS system. Mass spectrometric detection was performed in SRM mode, and ion transitions for each analyte were optimized during method development. Samples were analyzed in pools, with each pool containing three to four analytes.
Grouping by measured efflux ratio at 120 min, 1 µM is done with the following cut points: low: < 1; moderate: ≥ 1 and < 6; high: ≥ 6

Molecule	Qualitative Label
COc1ccccc1OCCNCC(O)COc1cccc2[nH]c3ccccc3c12 (stereo not drawn)	moderate
CCN1CCCC1CNC(=O)c1cc(S(=O)(=O)CC)c(N)cc1OC (stereo not drawn) [Amisulpride]	high
COc1cccc2c1C(=O)c1c(O)c3c(c(O)c1C2=O)C[C@@](O)(C(C)=O)C[C@@H]3O[C@H]1C[C@H](N)[C@H](O)[C@H](C)O1	high
Clc1cccc(Cl)c1N=C1NCCN1	low
CN(C)CCOC(C)(c1ccccc1)c1ccccn1 (stereo not drawn)	low
Cc1nccn1CC1CCc2c(c3ccccc3n2C)C1=O (stereo not drawn)	moderate
O=C(O)CCCN1CCC(O[C@@H](c2ccc(Cl)cc2)c2ccccn2)CC1	high
Cc1nc2n(c(=O)c1CCN1CCC(c3noc4cc(F)ccc34)CC1)CCCC2O (stereo not drawn)	moderate
CNS(=O)(=O)Cc1ccc2[nH]cc(CCN(C)C)c2c1	moderate
